- test.summary: Pharmacokinetic evaluation in humans
- Type: in vivo
- stated.conditions: human, plasma, 300 mg, compartmental, read-out: t1/2, Mean (SD) (converted)
readout.label: half-life (h)
Number only, in h; omit the unit.

Q. Reported half-life for C[C@H](NC(=O)[C@H](CCC(=O)O)NC(=O)CCCC[C@@H]1CCSS1)C(=O)O [RLip-EA-OH, N-(R)-lipoyl-L-glutamyl-L- alanine] : what is it?
A. 1.5

* * *

- test.summary: Pharmacokinetic evaluation in humans
- Format: in vivo
- stated.conditions: human, plasma, 20 mg, noncompartmental, read-out: CL, Median (converted)
readout.label: clearance (mL/min)
Number only, in mL/min; omit the unit.

Q. Reported clearance for C[C@H](NC(=O)[C@H](CCC(=O)O)NC(=O)CCCC[C@@H]1CCSS1)C(=O)O [RLip-EA-OH, N-(R)-lipoyl-L-glutamyl-L- alanine] : what is it?
A. 598
